- Test protocol: Pharmacokinetic profile after single oral, intranasal and intravenous betahistine in beagle dogs, Example 5
- Assay type: in vivo
- Measurement context: male, beagle, dog, in vivo, po, 48 mg/kg, Betahistine Plasma Concentration
Measurement name: concentration at 2 h (ng/mL)

[[record]]
smiles_structure = "CNCCc1ccccn1"
measurement_name = "concentration at 2 h"
unit_abbrev = "ng/mL"
recorded_number = 21.7


---

- Test protocol: Pharmacokinetic profile after single oral, intranasal and intravenous betahistine in beagle dogs, Example 5
- Type: in vivo
- Measurement context: male, beagle, dog, in vivo, po, 12 mg/kg, Betahistine Plasma Concentration
Measurement name: concentration at 5 min (ng/mL)

[[record]]
molecule = "CNCCc1ccccn1 [betahistine]"
recorded_number = 1.35


---

- Test protocol: Pharmacokinetic profile after single oral, intranasal and intravenous betahistine in beagle dogs, Example 5
- Format: in vivo
- Measurement context: female, beagle, dog, in vivo, iv, 0.44 mg/kg, AUC(0-6)
Measurement name: AUC(0-t)

[[record]]
compound = "CNCCc1ccccn1 [betahistine]"
result = "16.3 ng·h/mL"


---

- Test protocol: Pharmacokinetic profile after single oral, intranasal and intravenous betahistine in beagle dogs, Example 5
- Assay type: in vivo
- Measurement context: male, beagle, dog, in vivo, iv, 0.44 mg/kg
- Method: In this study, the pharmacokinetic profile of betahistine was evaluated after a single dose administration of betahistine in male and female beagle dogs (age 5-7 months; weight of 5-11 kg, within a range of 3 kg for each sex) for three routes of administration: oral, intranasal, and intravenous. On Day 1 of the study, betahistine (BH) was delivered orally at a dose of 12 mg/kg, 24 mg/kg, or 48 mg/kg. Each treatment group comprised 8 animals (4 males and 4 females). […]
Measurement name: clearance

[[record]]
smiles_structure = "CNCCc1ccccn1"
measurement_name = "clearance"
result = "398 mL/min/kg"


---

- Test protocol: Pharmacokinetic profile after single oral, intranasal and intravenous betahistine in beagle dogs, Example 5
- Format: in vivo
- Measurement context: female, beagle, dog, in vivo, po, 24 mg/kg, Betahistine Plasma Concentration
Measurement name: concentration at 0.5 h (ng/mL)

[[record]]
molecule = "CNCCc1ccccn1 [betahistine]"
measurement_name = "concentration at 0.5 h"
recorded_number = 12


---

- Test protocol: Pharmacokinetic profile after single oral, intranasal and intravenous betahistine in beagle dogs, Example 5
- Format: in vivo
- Measurement context: both sexes, beagle, dog, in vivo, po, 48 mg/kg, Betahistine Plasma Concentration
Measurement name: concentration at 0.167 h (ng/mL)

[[record]]
compound = "CNCCc1ccccn1 [betahistine]"
measurement_name = "concentration at 0.167 h"
unit_abbrev = "ng/mL"
recorded_number = 22.5


---

- Test protocol: Pharmacokinetic profile after single oral, intranasal and intravenous betahistine in beagle dogs, Example 5
- Type: in vivo
- Measurement context: female, beagle, dog, in vivo, iv, 0.44 mg/kg, Betahistine Plasma Concentration
Measurement name: concentration at 24 h (ng/mL)

[[record]]
compound = "CNCCc1ccccn1 [betahistine]"
unit_abbrev = "ng/mL"
recorded_number = 0.405


---

- Test protocol: Pharmacokinetic profile after single oral, intranasal and intravenous betahistine in beagle dogs, Example 5
- Format: in vivo
- Measurement context: both sexes, beagle, dog, in vivo, po, 12 mg/kg, Betahistine Plasma Concentration
Measurement name: concentration at 0.167 h (ng/mL)

[[record]]
smiles_structure = "CNCCc1ccccn1"
recorded_number = 4.6

